# Target desc: T1, Fc-binding protein (the ZZ domain of ProA)
# T1 construct: domain: ZZ domain of ProA; the construct is not described
# Experimental protocol: flow cytometry on cells expressing the Fc-binding ZZ domain on their surface; given as a measure of expression
Parameter measured: S:B Expression

Ask: Fill in the blank: the reported S:B Expression of Antibody of common light chain C11 (C11chicken) paired with the heavy chain against CD63 (antibody, V domains shown, also called HC-CD63) VH: AVTLDESGGGLQTPGGALSLVCKASGFTFSDRGMHWVRQAPGKGLEWVAGIRSTGSFTLYGAAVKGRATISRDDGQSTLRLQLNNLRAEDTGTYYCAKSAGGYGCGRGWCGVDDIDAWGHGTEVIVSS VL: ALTQPSSVSANPGETVKITCSGGGSWYGSYYYGWYQQKSPGSAPVTLIYNNDKRPSDIPSRFSGSESGSTATLTITGVQAEDEAVYFCGGYDSTTTDMFGAGTTLTVL is ____.
Result: 8.8 S:B

Ask: Fill in the blank: the reported S:B Expression of Antibody of light chain E1 (E1chicken) paired with the heavy chain against CD63 (antibody, V domains shown, also called HC-CD63) VH: AVTLDESGGGLQTPGGALSLVCKASGFTFSDRGMHWVRQAPGKGLEWVAGIRSTGSFTLYGAAVKGRATISRDDGQSTLRLQLNNLRAEDTGTYYCAKSAGGYGCGRGWCGVDDIDAWGHGTEVIVSS VL: ALTQPSSVSANPGETVKITCSGSSGSGYYGWYQQKSPGSAPVTLIYDNDKRPSDIPSRFSGSKSGSTGTLTITGVQADDEAVYFCGSADNNYTGIFGAGTTLTVL is ____.
Result: 24.4 S:B

Ask: Fill in the blank: the reported S:B Expression of Antibody of common light chain B9 (B9chicken) paired with the heavy chain against IGSF8 (antibody, V domains shown, also called HC-IGSF8) VH: AVTLDESGGGLQTPGGGLSLVCKASGFSISSYEMQWVRQAPGKGLEWVAGIDDDGSSRAYAPAVKGRATISRDNGQSTVRLQLNNLRAEDTGTYYCAKTIYAATLNAGEIDAWGHGTEVIVSS VL: ALTQPSSVSANPGETVKITCSGGGSSNYYGWYQQKSPGSAPVTLIYGTNKRPSDIPSRFSGSKSGSTGTLTITGVQADDEAVYFCGSADSSTNAGIFGAGTTLTVL is ____.
Result: 12.7 S:B
